Hey, just so you know, these numbers are from patent US6979686B1.

target: human p38 kinase alpha (Homo sapiens, UniProt Q16539); construct: GST (N, cleaved yes); made in house; host or cells: E. coli DH10B; test: p38 kinase in vitro assay, phosphorylation of biotinylated PHAS-I with 32P-ATP; type: biochemical; settings: in vitro P38-alpha kinase inhibition; read-out: P38 alpha kinase IC50
Sequence (Q16539 whole entry): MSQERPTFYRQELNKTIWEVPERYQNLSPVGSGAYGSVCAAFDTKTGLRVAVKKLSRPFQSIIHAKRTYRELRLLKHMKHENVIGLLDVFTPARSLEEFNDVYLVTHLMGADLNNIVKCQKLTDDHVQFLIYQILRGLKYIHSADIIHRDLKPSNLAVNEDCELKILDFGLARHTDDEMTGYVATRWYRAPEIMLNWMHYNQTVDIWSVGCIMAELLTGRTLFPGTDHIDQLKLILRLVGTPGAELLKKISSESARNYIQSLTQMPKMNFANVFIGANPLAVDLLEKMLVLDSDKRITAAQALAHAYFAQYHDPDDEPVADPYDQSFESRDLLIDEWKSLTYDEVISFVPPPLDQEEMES
Catalogue of pIC50 values
Quick note: pIC50 means taking -log10 of the concentration in moles per liter.

Consider the worked cases shown below.
[[record]]
molecule = "O=C(NCCc1[nH]nc(-c2ccc(F)cc2)c1-c1ccncc1)c1c(F)cccc1C(F)(F)F [Example B-1137]"
value_measured = 7.42

[[record]]
molecule = "CC(NS(=O)(=O)c1ccc(Cl)cc1Cl)c1[nH]nc(-c2ccc(F)cc2)c1-c1ccncc1 (stereo not shown) [Example B-0625]"
value_measured = 7.64

[[record]]
molecule = "O=C(NCCc1[nH]nc(-c2ccc(F)cc2)c1-c1ccncc1)c1cc(F)c(F)cc1F [Example B-1149]"
value_measured = 5.81

[[record]]
molecule = "CC(NC(=O)c1ccncc1)c1[nH]nc(-c2ccc(F)cc2)c1-c1ccncc1 (stereo not shown) [Example B-0555]"
value_measured = 5.73

[[record]]
molecule = "O=S(=O)(NC(Cc1ccccc1)c1[nH]nc(-c2ccc(F)cc2)c1-c1ccncc1)c1ccccc1 (stereo not shown) [Example B-0753]"
value_measured = 6.43


We next turn to a different molecule, shown below.
# pIC50 of CC(NC(=O)c1c(F)cccc1C(F)(F)F)c1[nH]nc(-c2ccc(F)cc2)c1-c1ccncc1 (stereo not shown) [Example B-0686] = 6.38

* * *

Readings of pIC50 for the listed molecules
Target: human p38 kinase alpha (Homo sapiens, UniProt Q16539)
Construct: GST (N, cleaved yes); made in house; host or cells: E. coli DH10B
Assay: p38 kinase in vitro assay, phosphorylation of biotinylated PHAS-I with 32P-ATP
Type: biochemical
Settings: in vitro P38-alpha kinase inhibition; read-out: P38 alpha kinase IC50
Experimental: The coding region of the human p38a cDNA was obtained by PCR-amplification from RNA isolated from the human monocyte cell line THP.1. […] Random primer, dNTP's and Superscript™ reagents were all purchased from Life-Technologies, Gaithersburg, Mass. The reaction was incubated at 42° C. for 1 hour. […]
pIC50: −log10 of the molar value.

Some molecules with recorded pIC50:
[[record]]
molecule = "CC(NS(=O)(=O)c1cccc(C(F)(F)F)c1)c1[nH]nc(-c2ccc(F)cc2)c1-c1ccncc1 (stereo not drawn)"
value_measured = "> 7.00"

[[record]]
molecule = "C[C@@H](NS(=O)(=O)c1ccc(F)c(Cl)c1)c1[nH]nc(-c2ccc(F)cc2)c1-c1ccncc1"
value_measured = "> 7.00"


Read the next record carefully.
Per the records, this molecule ( `O=[N+]([O-])c1ccccc1CS(=O)(=O)NCCc1[nH]nc(-c2ccc(F)cc2)c1-c1ccncc1` ) has pIC50 equal to > 7.00

* * *

Target: human p38 kinase alpha (Homo sapiens, UniProt Q16539)
Construct: GST (N, cleaved yes); made in house; host or cells: E. coli DH10B
Test: p38 kinase in vitro assay, phosphorylation of biotinylated PHAS-I with 32P-ATP
Type: biochemical
Settings: in vitro P38-alpha kinase inhibition; read-out: P38 alpha kinase IC50
Description: The coding region of the human p38a cDNA was obtained by PCR-amplification from RNA isolated from the human monocyte cell line THP.1. […] Random primer, dNTP's and Superscript™ reagents were all purchased from Life-Technologies, Gaithersburg, Mass. The reaction was incubated at 42° C. for 1 hour. […]
Listing: log10(IC50) of selected compounds
Record value = log10 of IC50 given in nM.

[[record]]
compound = "CC(NC(=O)c1ccc(F)cc1)c1[nH]nc(-c2ccc(F)cc2)c1-c1ccncc1 (stereo not shown) [Example B-0533]"
assay_target = "human p38 kinase alpha (Homo sapiens, UniProt Q16539)"
assay_metric = "log10(IC50)"
value_measured = 3.09

[[record]]
compound = "O=C(NC(Cc1ccccc1)c1[nH]nc(-c2ccc(F)cc2)c1-c1ccncc1)c1ccncc1 (stereo not shown) [Example B-0822]"
assay_target = "human p38 kinase alpha (Homo sapiens, UniProt Q16539)"
assay_metric = "log10(IC50)"
value_measured = 3.12


Consider CC(C)S(=O)(=O)NC(Cc1ccccc1)c1[nH]nc(-c2ccc(F)cc2)c1-c1ccncc1 (stereo not shown) [Example B-0709] . Its measured log10(IC50) is 2.92

For reference, reported log10(IC50) for CC(=O)OC(C)(C)C(=O)NC(Cc1ccccc1)c1[nH]nc(-c2ccc(F)cc2)c1-c1ccncc1 (stereo not shown) [Example B-0834] stands at 3.10

Please fill in: log10(IC50) reported for CC(NS(=O)(=O)C(C)C)c1[nH]nc(-c2ccc(F)cc2)c1-c1ccncc1 (stereo not shown) [Example B-0564] = 2.91

compound O=C(NCCc1[nH]nc(-c2ccc(F)cc2)c1-c1ccncc1)c1ccc(C(F)(F)F)cc1F [Example B-1136] , log10(IC50) observed: 3.07

Form field log10(IC50), entry CC(NC(=O)NCCc1ccccc1)c1[nH]nc(-c2ccc(F)cc2)c1-c1ccncc1 (stereo not shown) [Example B-0593] : 3.09

The value of log10(IC50) measured for the compound C[C@@H](NC(=O)[C@H]1CCCN1)c1[nH]nc(-c2ccc(F)cc2)c1-c1ccncc1 [Example B-0428] turned out to be 3.00

For Cc1ccc(F)cc1S(=O)(=O)NC(C)c1[nH]nc(-c2ccc(F)cc2)c1-c1ccncc1 (stereo not shown) [Example B-0451] the compound record lists log10(IC50) as 1.85

get_value(item= CC(NS(=O)(=O)c1ccc(F)cc1F)c1[nH]nc(-c2ccc(F)cc2)c1-c1ccncc1 (stereo not shown) [Example B-0567] , readout=log10(IC50)) returns 2.15

GET /value?item= O=C(NCCc1[nH]nc(-c2ccc(F)cc2)c1-c1ccncc1)c1ccc(Cl)cc1 [Example B-1121] &field=log10(IC50) returns 3.55

For record CC(NS(=O)(=O)c1cccc(Cl)c1Cl)c1[nH]nc(-c2ccc(F)cc2)c1-c1ccncc1 (stereo not shown) [Example B-0622] the listed log10(IC50) is 1.88

Memo: O=S(=O)(NC(Cc1ccccc1)c1[nH]nc(-c2ccc(F)cc2)c1-c1ccncc1)c1ccc(F)cc1 (stereo not shown) [Example B-0707] , reported log10(IC50): 3.23

Short answer for Cc1ccc(S(C)(=O)=O)cc1S(=O)(=O)NCCc1[nH]nc(-c2ccc(F)cc2)c1-c1ccncc1 [Example B-1119] : log10(IC50) was 2.54

* * *

target: human p38 kinase alpha (Homo sapiens, UniProt Q16539); construct: GST (N, cleaved yes); made in house; host or cells: E. coli DH10B; test: p38 kinase in vitro assay, phosphorylation of biotinylated PHAS-I with 32P-ATP; format: biochemical; details: in vitro P38-alpha kinase; read-out: P38 alpha kinase IC50
Decision: IC50 beneath 500 nM gives criterion met; IC50 meeting or exceeding 500 nM gives criterion not met.

The examples below pair each entry with its known result.
[[record]]
molecular_string = "O=S(=O)(NCc1[nH]nc(-c2ccc(F)cc2)c1-c1ccncc1)c1ccc(Br)cc1"
category = "criterion met"

[[record]]
molecular_string = "C[C@@H](NS(=O)(=O)/C=C/c1ccccc1)c1[nH]nc(-c2ccc(F)cc2)c1-c1ccncc1"
category = "criterion met"

[[record]]
molecular_string = "O=S(=O)(NCCCc1[nH]nc(-c2ccc(F)cc2)c1-c1ccncc1)c1ccccc1Cl"
category = "criterion met"

[[record]]
molecular_string = "CC1(C)[C@@H]2CC[C@@]1(S(=O)(=O)NCCCc1[nH]nc(-c3ccc(F)cc3)c1-c1ccncc1)C(=O)C2"
category = "criterion met"

[[record]]
molecular_string = "O=S(=O)(c1ccc(F)cc1)N1CCC(c2[nH]nc(-c3ccc(F)cc3)c2-c2ccncc2)CC1"
category = "criterion not met"

[[record]]
molecular_string = "CCC(=O)N1CCC(c2[nH]nc(-c3ccc(F)cc3)c2-c2ccncc2)CC1"
category = "criterion met"

[[record]]
molecular_string = "COc1cc(NC(=O)CCNC(=O)Cn2nc(-c3ccc(F)cc3)c(-c3ccncc3)c2C)cc2ccccc12"
category = "criterion met"

[[record]]
molecular_string = "O=C(c1ccccc1I)N1CCC(c2[nH]nc(-c3ccc(F)cc3)c2-c2ccncc2)CC1"
category = "criterion met"

[[record]]
molecular_string = "N#Cc1ccc(S(=O)(=O)N2CCC(c3[nH]nc(-c4ccc(F)cc4)c3-c3ccncc3)CC2)cc1"
category = "criterion not met"

[[record]]
molecular_string = "Cc1c(-c2ccncc2)c(-c2ccc(F)cc2)nn1CC(=O)NCCc1csc2ccccc12"
category = "criterion not met"


Is IC50 of `O=C(NCCCc1[nH]nc(-c2ccc(F)cc2)c1-c1ccncc1)NCCN1CCCCC1` strictly below 500 nM?
criterion met

Is 500 nM strictly greater than the compound's reported IC50? compound: `O=S(=O)(c1ccc(Br)cc1)N1CCC(c2[nH]nc(-c3ccc(F)cc3)c2-c2ccncc2)CC1`
criterion not met

Lab note: confirm whether the reported IC50 for this compound is below 500 nM, equality not counting. compound: `CCOCCCNC(=O)Cn1nc(-c2ccc(F)cc2)c(-c2ccncc2)c1C`
criterion not met

Given `O=C(c1ccccc1F)N1CCC(c2[nH]nc(-c3ccc(F)cc3)c2-c2ccncc2)CC1` , is recorded IC50 strictly lower than 500 nM?
criterion met

Hello, is IC50 of the following compound strictly smaller than 500 nM? `Cc1c(-c2ccncc2)c(-c2ccc(F)cc2)nn1CC(=O)NCCC1=CCCCC1`
criterion met
